The reported numbers originate from PubChem BioAssay AID488969.

assay_target: Metabotropic glutamate receptor 8 (Rattus norvegicus) (UniProt P70579)
Sequence (P70579 whole entry, looked up): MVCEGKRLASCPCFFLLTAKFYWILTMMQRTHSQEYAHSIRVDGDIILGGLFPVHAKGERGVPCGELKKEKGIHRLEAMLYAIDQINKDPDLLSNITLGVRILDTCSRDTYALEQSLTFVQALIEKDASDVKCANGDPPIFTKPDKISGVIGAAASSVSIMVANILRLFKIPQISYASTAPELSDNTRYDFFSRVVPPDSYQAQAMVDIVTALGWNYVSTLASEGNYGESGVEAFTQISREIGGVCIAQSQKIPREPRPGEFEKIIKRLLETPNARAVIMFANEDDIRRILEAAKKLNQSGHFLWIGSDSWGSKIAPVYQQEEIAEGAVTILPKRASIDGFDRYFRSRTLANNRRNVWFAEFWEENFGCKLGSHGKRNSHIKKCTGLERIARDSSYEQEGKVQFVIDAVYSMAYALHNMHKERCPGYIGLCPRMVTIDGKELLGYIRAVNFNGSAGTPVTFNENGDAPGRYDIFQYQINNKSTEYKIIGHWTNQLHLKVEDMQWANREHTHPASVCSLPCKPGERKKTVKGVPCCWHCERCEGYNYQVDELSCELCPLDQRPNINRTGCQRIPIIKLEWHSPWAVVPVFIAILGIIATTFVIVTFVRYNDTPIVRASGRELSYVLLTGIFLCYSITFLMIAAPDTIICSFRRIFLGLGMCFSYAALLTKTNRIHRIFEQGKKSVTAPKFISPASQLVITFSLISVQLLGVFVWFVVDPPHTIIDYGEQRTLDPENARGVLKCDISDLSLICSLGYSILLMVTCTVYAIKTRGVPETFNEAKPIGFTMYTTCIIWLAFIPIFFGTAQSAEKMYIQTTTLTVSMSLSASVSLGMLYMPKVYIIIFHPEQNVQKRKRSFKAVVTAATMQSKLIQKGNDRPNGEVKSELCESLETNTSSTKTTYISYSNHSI
method_summary: mGluR8 Gi/Go-coupled signaling modulation – cell-based, rat, thallium flux, HTS, primary screen (AID 488969)
condition_set: HEK293 rat mGluR8, GIRK (G protein-gated inwardly rectifying potassium channel) thallium flux, FluoZin2; at 10 µM; stronger effect = higher value; submaximal glutamate (EC20) added with thallium
The full ranking holds about 110,000 compounds; the median of “z-score” is about -0.1, and the highest 2% start at about 2. The entries come from a sample that favours the highest values as a whole.
measured_parameter: z-score

CC(NC(=O)Cc1ccc(-c2ccccc2)cc1)c1ccccc1 (configuration not stated): -0.225
Cc1ccc(-c2cc(N)n(Cc3ccc(Cl)cc3)n2)cc1: -0.532
Cc1nn(CC(=O)NCc2ccc(OC(C)C)cc2)c(=O)c2cc3occc3n12: -0.4
CCC(C)NC(=O)CSc1nc2c(sc3ccccc32)c(=O)n1CCCN1CCOCC1 (configuration not stated): 0.452
COc1ccccc1C(=O)NNC(=S)NC(=O)c1sc2ccccc2c1Cl: 4.01
CC(C)CCn1c(SCC#N)nc2c(sc3ccccc32)c1=O: 5.93
CCSc1nc2c(sc3ccccc32)c(=O)n1C(C)C: 0.00726
O=C(CSc1nc2c(sc3ccccc32)c(=O)n1Cc1ccccc1)NCC1CCCO1 (configuration not stated): 0.199
O=C(NC(=S)Nc1ccccc1N1CCOCC1)c1sc2ccccc2c1Cl: 1.18
O=C(CSc1nc2c(sc3ccccc32)c(=O)n1CCO)NCC1CCCO1 (configuration not stated): 0.0816
COc1ccc(Br)cc1S(=O)(=O)N1CCCC1: -0.0684
COc1ccccc1C(=O)NC(=S)Nc1ccc(NC(=O)c2cccs2)cc1: 0.853
Cc1ccc(S(=O)(=O)N(C)CCCC(=O)Nc2cccc3ccccc23)cc1: -0.456
CCCOc1ccc(C(=O)NC(=S)Nc2nc(C)c(C(=O)N(C)C)s2)cc1: 0.54
COc1ccc(CCNC(=O)c2sc3ccccc3c2Cl)cc1OC: -0.565
Cc1ccc(Cn2c(SCC(=O)NCC3CCCO3)nc3c(sc4ccccc43)c2=O)cc1 (configuration not stated): 2.06
N#Cc1ccccc1NC(=O)c1ccccc1OCC(=O)Nc1ccc2c(c1)oc1ccccc12: -0.362
COc1cc(C(=O)OCC(=O)Nc2ccc3c(c2)OC(F)(F)O3)ccc1OCc1c(C)noc1C: -0.513
CC(C)(C)CC(C)(C)NCC(O)COc1c(F)cc(Br)cc1F (configuration not stated): 3.25
O=C(NNC(=S)NC1CCCCC1)c1sc2ccccc2c1Cl: -0.163
Cc1nn(Cc2c(F)c(F)c(F)c(F)c2F)c(C)c1NC(=O)c1ccc(COc2ccccc2Cl)o1: -0.506
COc1ccc(/C=N\N=C2/SC(CC(=O)O)C(=O)N2c2ccc(O)cc2)cc1OC (configuration not stated): -0.0449
